FYI, the data here is from patent US20240358777A1.

Kindly state MIC for each of the entries shown.
Test system: ART24
assay-protocol: Additional EFSA-recommended MIC studies on ART24 lots and cell banks (Table 7)
Type: cell-based, Bacillus amyloliquefaciens
setup-conditions: Bacillus amyloliquefaciens, source CO-33-12A2 (lyophilized lot); read-out: MIC

CC(=O)NC[C@H]1CN(c2ccc(N3CCOCC3)c(F)c2)C(=O)O1 [Linezolid]; 0.5 µg/mL
O=C(N[C@H](CO)[C@H](O)c1ccc([N+](=O)[O-])cc1)C(Cl)Cl [Chloroamphenicol, Chloramphenicol]; 2 µg/mL
O=C(O)c1cn(C2CC2)c2cc(N3CCNCC3)c(F)cc2c1=O [Ciprofloxacin]; ≤ 0.03 µg/mL

Now, please, on to the next compound.
INPUT: Answer with the recorded MIC for the compound listed here: CC1(C)S[C@@H]2[C@H](NC(=O)[C@H](N)c3ccccc3)C(=O)N2[C@H]1C(=O)O [Ampicillin]
OUTPUT: ≤ 0.03 µg/mL

----------
Test system: ART24
assay-protocol: Additional EFSA-recommended MIC studies on ART24 lots and cell banks (Table 7)
Type: cell-based, Bacillus amyloliquefaciens
setup-conditions: Bacillus amyloliquefaciens, source CO-33-10A2 (lyophilized lot); read-out: MIC
reported-property: MIC (µg/mL)
Answers are plain numbers, in µg/mL.

O=C(N[C@H](CO)[C@H](O)c1ccc([N+](=O)[O-])cc1)C(Cl)Cl; 2

Now, please, on to the next compound.
INPUT: Answer with the recorded MIC for the compound listed here: CN(C)[C@@H]1C(O)=C(C(N)=O)C(=O)[C@@]2(O)C(O)=C3C(=O)c4c(O)cccc4[C@@](C)(O)[C@H]3C[C@@H]12
OUTPUT: 2

----------
System: ART24
assay-protocol: Additional EFSA-recommended MIC studies on ART24 lots and cell banks (Table 7)
Type: cell-based, Bacillus amyloliquefaciens
setup-conditions: source CO-33 ART 024 SYD
reported-property: MIC interpretation

CC[C@H]1OC(=O)[C@H](C)[C@@H](O[C@H]2C[C@@](C)(OC)[C@@H](O)[C@H](C)O2)[C@H](C)[C@@H](O[C@@H]2O[C@H](C)C[C@H](N(C)C)[C@H]2O)[C@](C)(O)C[C@@H](C)C(=O)[C@H](C)[C@@H](O)[C@]1(C)O; (S)
CCC[C@@H]1C[C@@H](C(=O)N[C@@H]([C@H]2O[C@H](SC)[C@H](O)[C@@H](O)[C@H]2O)[C@H](C)Cl)N(C)C1; (S)
NC[C@H]1O[C@H](O[C@H]2[C@H](O)[C@@H](O[C@H]3O[C@H](CO)[C@@H](O)[C@H](N)[C@H]3O)[C@H](N)C[C@@H]2N)[C@H](O)[C@@H](O)[C@@H]1O; (S)

----------
System: ART24
assay-protocol: Additional EFSA-recommended MIC studies on ART24 lots and cell banks (Table 7)
Type: cell-based, Bacillus amyloliquefaciens
setup-conditions: Bacillus amyloliquefaciens, source CO-33-12A2 (lyophilized lot); read-out: MIC
Method: The minimum inhibitory concentration (MIC) of the listed antimicrobials is expressed as μg/mL. Additional studies following EFSA testing recommendations were performed on lyophilized ART24 lots CO-33-10A2 and CO-33-12A2 and Research and Master Cell Banks CO-33-ART24 BHI and CO-33-ART24 SYD, and those results are shown in Table 7.
reported-property: MIC (µg/mL)
One number for each entry, in µg/mL.

CCC[C@@H]1C[C@@H](C(=O)N[C@@H]([C@H]2O[C@H](SC)[C@H](O)[C@@H](O)[C@H]2O)[C@H](C)Cl)N(C)C1; 0.25

Now, please, on to the next compound.
INPUT: Answer with the recorded MIC for the compound listed here: CCc1c(Cl)c(O)c(Cl)c(O)c1C(=O)O[C@H]1[C@H](O)[C@H](OC)[C@H](OC/C2=C\C=C\C[C@H](O)/C(C)=C/[C@H](CC)[C@@H](O[C@@H]3OC(C)(C)[C@@H](OC(=O)C(C)C)[C@H](O)[C@@H]3O)/C(C)=C/C(C)=C/C[C@@H]([C@@H](C)O)OC2=O)O[C@@H]1C
OUTPUT: 4

----------
Kindly state MIC for each of the entries shown.
Tested on: ART24
assay-protocol: Additional EFSA-recommended MIC studies on ART24 lots and cell banks (Table 7)
Format: cell-based, Bacillus amyloliquefaciens
setup-conditions: Bacillus amyloliquefaciens, source CO-33-10A2 (lyophilized lot); read-out: MIC
Give bare numbers, in µg/mL.

Items follow; give MIC for each.
1. CCC[C@@H]1C[C@@H](C(=O)N[C@@H]([C@H]2O[C@H](SC)[C@H](O)[C@@H](O)[C@H]2O)[C@H](C)Cl)N(C)C1
2. CC(=O)NC[C@H]1CN(c2ccc(N3CCOCC3)c(F)c2)C(=O)O1
3. CO[C@H]1/C=C/O[C@@]2(C)Oc3c(C)c(O)c4c(O)c(c(/C=N/N5CCN(C)CC5)c(O)c4c3C2=O)NC(=O)/C(C)=C\C=C\[C@H](C)[C@H](O)[C@@H](C)[C@@H](O)[C@@H](C)[C@H](OC(C)=O)[C@@H]1C
4. [H]/N=C(/N)N[C@H]1[C@H](O)[C@@H](O)[C@H](O[C@@H]2O[C@@H](C)[C@](O)(C=O)[C@H]2O[C@@H]2O[C@@H](CO)[C@H](O)[C@@H](O)[C@@H]2NC)[C@@H](N/C(N)=N\[H])[C@@H]1O

OUTPUT:
[0.12, 0.25, 0.25, 1]

----------
System: ART24
assay-protocol: Additional EFSA-recommended MIC studies on ART24 lots and cell banks (Table 7)
Format: cell-based, Bacillus amyloliquefaciens
setup-conditions: source CO-33-12A2
reported-property: MIC interpretation

CO[C@H]1/C=C/O[C@@]2(C)Oc3c(C)c(O)c4c(O)c(c(/C=N/N5CCN(C)CC5)c(O)c4c3C2=O)NC(=O)/C(C)=C\C=C\[C@H](C)[C@H](O)[C@@H](C)[C@@H](O)[C@@H](C)[C@H](OC(C)=O)[C@@H]1C; (S)
[H]/N=C(/N)N[C@H]1[C@H](O)[C@@H](O)[C@H](O[C@@H]2O[C@@H](C)[C@](O)(C=O)[C@H]2O[C@@H]2O[C@@H](CO)[C@H](O)[C@@H](O)[C@@H]2NC)[C@@H](N/C(N)=N\[H])[C@@H]1O; (S)
NC[C@H]1O[C@H](O[C@H]2[C@H](O)[C@@H](O[C@H]3O[C@H](CO)[C@@H](O)[C@H](N)[C@H]3O)[C@H](N)C[C@@H]2N)[C@H](O)[C@@H](O)[C@@H]1O; (S)
CCC[C@@H]1C[C@@H](C(=O)N[C@@H]([C@H]2O[C@H](SC)[C@H](O)[C@@H](O)[C@H]2O)[C@H](C)Cl)N(C)C1; (S)
O=C(O)c1cn(C2CC2)c2cc(N3CCNCC3)c(F)cc2c1=O; (S)
O=C(N[C@H](CO)[C@H](O)c1ccc([N+](=O)[O-])cc1)C(Cl)Cl; (S)
CN(C)[C@@H]1C(O)=C(C(N)=O)C(=O)[C@@]2(O)C(O)=C3C(=O)c4c(O)cccc4[C@@](C)(O)[C@H]3C[C@@H]12; (S)
CN[C@H](CC(C)C)C(=O)N[C@H]1C(=O)N[C@@H](CC(N)=O)C(=O)N[C@H]2C(=O)N[C@H]3C(=O)N[C@H](C(=O)N[C@H](C(=O)O)c4cc(O)cc(O)c4-c4cc3ccc4O)[C@H](O)c3ccc(c(Cl)c3)Oc3cc2cc(c3O[C@@H]2O[C@H](CO)[C@@H](O)[C@H](O)[C@H]2O[C@H]2C[C@](C)(N)[C@H](O)[C@H](C)O2)Oc2ccc(cc2Cl)[C@H]1O; (S)
CC1(C)S[C@@H]2[C@H](NC(=O)[C@H](N)c3ccccc3)C(=O)N2[C@H]1C(=O)O; (S)

Now, please, on to the next compound.
INPUT: Answer with the recorded MIC interpretation for the compound listed here: CC[C@H]1OC(=O)[C@H](C)[C@@H](O[C@H]2C[C@@](C)(OC)[C@@H](O)[C@H](C)O2)[C@H](C)[C@@H](O[C@@H]2O[C@H](C)C[C@H](N(C)C)[C@H]2O)[C@](C)(O)C[C@@H](C)C(=O)[C@H](C)[C@@H](O)[C@]1(C)O
OUTPUT: (S)

----------
Test system: ART24
assay-protocol: Additional EFSA-recommended MIC studies on ART24 lots and cell banks (Table 7)
Format: cell-based, Bacillus amyloliquefaciens
setup-conditions: Bacillus amyloliquefaciens, source CO-33-12A2 (lyophilized lot); read-out: MIC
reported-property: MIC (µg/mL)
Numbers only, in µg/mL.

Completed entries (count: 3):
CN(C)[C@@H]1C(O)=C(C(N)=O)C(=O)[C@@]2(O)C(O)=C3C(=O)c4c(O)cccc4[C@@](C)(O)[C@H]3C[C@@H]12 [Tetracycline]; 2
CC[C@H]1OC(=O)[C@H](C)[C@@H](O[C@H]2C[C@@](C)(OC)[C@@H](O)[C@H](C)O2)[C@H](C)[C@@H](O[C@@H]2O[C@H](C)C[C@H](N(C)C)[C@H]2O)[C@](C)(O)C[C@@H](C)C(=O)[C@H](C)[C@@H](O)[C@]1(C)O [Erythromycin]; 0.06
[H]/N=C(/N)N[C@H]1[C@H](O)[C@@H](O)[C@H](O[C@@H]2O[C@@H](C)[C@](O)(C=O)[C@H]2O[C@@H]2O[C@@H](CO)[C@H](O)[C@@H](O)[C@@H]2NC)[C@@H](N/C(N)=N\[H])[C@@H]1O [Streptomycin]; 1

Now, please, on to the next molecule.
INPUT: Answer with the recorded MIC for the molecule listed here: CO[C@H]1/C=C/O[C@@]2(C)Oc3c(C)c(O)c4c(O)c(c(/C=N/N5CCN(C)CC5)c(O)c4c3C2=O)NC(=O)/C(C)=C\C=C\[C@H](C)[C@H](O)[C@@H](C)[C@@H](O)[C@@H](C)[C@H](OC(C)=O)[C@@H]1C [Rifampicin]
OUTPUT: 0.25
